Examples of molecules with documented viability at 28.5 h, 10 µM follow.
protocolSummary: in vitro
details: human, hela cells, % viability
Give the number; % is assumed, so skip it.

// known answers, use as guide
{"molecule": "Cc1cnc(CNC(=O)/C=C/c2ccc(C(C)C)cc2)cn1 [CBK149625]", "observedValue": 99.4}
{"molecule": "O=C(NCc1nnc(-c2cccs2)o1)c1cccc(-c2ccc(F)cc2)c1 [CBK286296]", "observedValue": 86.9}
{"molecule": "Cc1c(C(C)NCC(O)c2ccncc2)cnn1-c1ccc(C#N)cc1 (centres unmarked) [CBK305403]", "observedValue": 85}
{"molecule": "CCn1ncc(CN(CCN(C)C)Cc2cccs2)c1C [CBK282958]", "observedValue": 107}

Let us examine a further case.
**Q:** Given the molecule COc1ccc(C(NC(=O)C2CCCN(C(=O)NC(=O)c3ccccc3)C2)c2ccccc2C)cn1 (centres unmarked) [CBK075023] , what is its reported viability at 28.5 h, 10 µM?
**A:** 90.9
